# Lookup of reported kon keyed by entry
System name: T1, human IL-33 (R&D Systems, #3625-IL-010/CF) (human, UniProt O95760 112-270)
T1 construct: Commercial recombinant protein; also called hIL-33; interleukin-33
T1 sequence (looked up): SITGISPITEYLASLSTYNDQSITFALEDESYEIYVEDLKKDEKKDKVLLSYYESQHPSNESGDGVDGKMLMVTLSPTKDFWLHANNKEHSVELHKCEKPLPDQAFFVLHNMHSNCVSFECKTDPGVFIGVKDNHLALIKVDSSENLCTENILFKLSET
Protocol details: SPR 25C pH7.4, mAb captured
Report the figure along with its unit, number first.

Known kon results, listed for orientation:
{"Binder": "H4H9665P (antibody, human IgG4, V domains shown, Human IgG4 Fc (H4H)) VH: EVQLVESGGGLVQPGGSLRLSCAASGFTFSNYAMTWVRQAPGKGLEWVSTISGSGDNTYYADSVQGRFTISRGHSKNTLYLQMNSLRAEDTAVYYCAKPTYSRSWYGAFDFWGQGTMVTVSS VL: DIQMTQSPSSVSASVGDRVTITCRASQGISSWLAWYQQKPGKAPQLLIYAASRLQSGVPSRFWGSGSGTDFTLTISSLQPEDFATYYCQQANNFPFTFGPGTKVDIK", "kon": "888000 M⁻¹ s⁻¹"}
{"Binder": "H4H9633P (antibody, human IgG4, V domains shown, Human IgG4 Fc (H4H)) VH: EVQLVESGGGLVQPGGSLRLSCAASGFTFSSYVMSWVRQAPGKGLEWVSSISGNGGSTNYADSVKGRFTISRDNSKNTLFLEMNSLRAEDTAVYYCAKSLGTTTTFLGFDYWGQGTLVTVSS VL: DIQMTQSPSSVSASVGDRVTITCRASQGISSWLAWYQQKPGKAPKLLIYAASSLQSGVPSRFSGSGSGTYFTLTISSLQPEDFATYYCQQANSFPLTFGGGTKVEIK", "kon": "656000 M⁻¹ s⁻¹"}
{"Binder": "H1M9559N (antibody, mouse IgG1, V domains shown, Human variable domains, mouse IgG1 Fc (H1M)) VH: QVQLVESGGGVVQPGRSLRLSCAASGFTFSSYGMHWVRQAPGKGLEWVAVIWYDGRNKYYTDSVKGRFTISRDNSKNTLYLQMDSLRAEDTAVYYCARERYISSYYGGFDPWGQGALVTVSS VL: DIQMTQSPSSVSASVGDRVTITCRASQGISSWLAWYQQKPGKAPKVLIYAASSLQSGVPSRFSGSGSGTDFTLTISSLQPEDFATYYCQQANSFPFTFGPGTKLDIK", "kon": "404000 M⁻¹ s⁻¹"}

kon lookup needed for H4H9660P (antibody, human IgG4, V domains shown, Human IgG4 Fc (H4H)) VH: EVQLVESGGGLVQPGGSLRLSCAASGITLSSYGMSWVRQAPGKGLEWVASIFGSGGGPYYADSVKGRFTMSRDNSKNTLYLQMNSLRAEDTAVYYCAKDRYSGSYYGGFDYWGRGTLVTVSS VL: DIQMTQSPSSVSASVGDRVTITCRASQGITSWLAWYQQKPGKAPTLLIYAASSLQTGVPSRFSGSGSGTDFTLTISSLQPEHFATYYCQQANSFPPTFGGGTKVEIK , thanks. 696000 M⁻¹ s⁻¹

Next binder: H4H9672P (antibody, human IgG4, V domains shown, Human IgG4 Fc (H4H)) VH: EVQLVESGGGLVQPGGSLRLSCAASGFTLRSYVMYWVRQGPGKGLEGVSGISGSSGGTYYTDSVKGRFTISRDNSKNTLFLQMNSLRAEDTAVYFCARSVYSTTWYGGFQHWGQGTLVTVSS VL: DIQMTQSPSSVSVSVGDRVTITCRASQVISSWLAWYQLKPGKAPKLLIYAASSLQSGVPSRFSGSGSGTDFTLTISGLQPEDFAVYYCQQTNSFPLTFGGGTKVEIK 668000 M⁻¹ s⁻¹
